- experimental.target: UniProt:Q9Y2U5
- Sequence (Q9Y2U5 1-619): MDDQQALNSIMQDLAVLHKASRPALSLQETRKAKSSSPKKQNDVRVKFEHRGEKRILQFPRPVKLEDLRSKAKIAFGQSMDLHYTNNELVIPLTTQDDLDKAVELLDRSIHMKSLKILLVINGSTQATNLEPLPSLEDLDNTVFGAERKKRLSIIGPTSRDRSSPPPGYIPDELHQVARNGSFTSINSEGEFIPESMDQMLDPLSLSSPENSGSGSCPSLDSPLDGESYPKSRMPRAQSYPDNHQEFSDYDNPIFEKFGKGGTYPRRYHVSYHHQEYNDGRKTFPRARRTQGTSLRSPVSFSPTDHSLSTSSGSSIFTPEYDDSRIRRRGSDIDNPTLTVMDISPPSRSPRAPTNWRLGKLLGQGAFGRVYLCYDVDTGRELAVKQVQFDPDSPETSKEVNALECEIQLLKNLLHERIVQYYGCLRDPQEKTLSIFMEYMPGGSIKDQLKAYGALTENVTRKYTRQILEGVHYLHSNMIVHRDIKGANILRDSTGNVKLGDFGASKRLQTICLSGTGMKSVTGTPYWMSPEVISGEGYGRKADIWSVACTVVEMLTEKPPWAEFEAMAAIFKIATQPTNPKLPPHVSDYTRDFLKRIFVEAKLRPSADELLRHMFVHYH
- test.protocol: MEKK2 intrinsic ATPase activity assay
- Type: biochemical
experimental.readout: pIC50
Numbers only, as −log10 of the molar value.

Consider the following illustrative entries.
>>> recorded_value("O=C(Nc1c[nH]nc1-c1nc2ccc(CN3CCOCC3)cc2[nH]1)NC1CC1 [AT9283]")
7.74
>>> recorded_value("Nc1nc(Nc2ccc(S(N)(=O)=O)cc2)nn1C(=O)c1c(F)cccc1F [JNJ-7706621]")
7.62
>>> recorded_value("CCS(=O)(=O)Nc1ccc2c(c1)/C(=C(/Nc1ccc(CN3CCCCC3)cc1)c1ccccc1)C(=O)N2 [Hesperadin]")
7.22

Input line: Using the record for NC(=O)Nc1cc(-c2cccc(F)c2)sc1C(=O)N[C@H]1CCCNC1 [AZD7762] , state its measured pIC50.
Output line: 7.70

====

- experimental.target: MEKK2 (Homo sapiens, UniProt Q9Y2U5)
- test.protocol: MEKK2 transphosphorylation slot blot assay using MKK6 as a substrate
- Format: biochemical
Please go through the items and note down their IC50.
Answers are plain numbers, in nM.

Example cases with answers are listed next.
>>> recorded_value("CCS(=O)(=O)Nc1ccc2c(c1)/C(=C(/Nc1ccc(CN3CCCCC3)cc1)c1ccccc1)C(=O)N2")
34
>>> recorded_value("Nc1nc(Nc2ccc(S(N)(=O)=O)cc2)nn1C(=O)c1c(F)cccc1F")
17
>>> recorded_value("O=C(Nc1c[nH]nc1-c1nc2ccc(CN3CCOCC3)cc2[nH]1)NC1CC1")
4.7

Input line: Answer with reported IC50 of NC(=O)Nc1cc(-c2cccc(F)c2)sc1C(=O)N[C@H]1CCCNC1
Output line: 14
